# Test system: TGF-β
# experimentalProtocol: AlphaScreen SureFire p-SMAD3 (Ser423/425) assay, TGF-β-stimulated cells
# Type: cell-based
# testConditions: Mus musculus; p-SMAD3 (Ser423/425) AlphaScreen in cell lysate; MPC-11; TGF-β stimulation; read-out: TGF-β: inhibition of TGF-β signaling, TGF-β pSMAD (MPC-11)
// IC50 lookup, one value per entry

For orientation, consider the following solved cases.
• Cc1c(F)ccc(-c2nc3n(c2-c2ccc4nccnc4c2)CCC3)c1F = 100 to 1000 nM
• Fc1ccc(-c2nc3occn3c2-c2ccc3cn[nH]c3c2)cc1F = 100 to 1000 nM

(Q) What reported IC50 corresponds to `O=S(=O)(Nc1cccc(-c2nc3n(c2-c2ccc4nccn4c2)CCC3)c1)c1ccccc1F` on TGF-β?
(A) > 1000 nM

(Q) What reported IC50 corresponds to O=C(O)C1Cn2c(nc(-c3cc(F)cc(F)c3F)c2-c2ccc3ncnn3c2)N1 (centres unmarked) on TGF-β?
(A) < 50 nM

(Q) What reported IC50 corresponds to `Fc1ccc(-c2cn3ccoc3n2)cc1F` on TGF-β?
(A) > 1000 nM

(Q) What reported IC50 corresponds to `Fc1ccccc1-c1nc2n(c1-c1cc3cnccc3s1)CCC2` on TGF-β?
(A) > 1000 nM

(Q) What reported IC50 corresponds to `Fc1ccc(-c2nc3n(c2-c2ccc4nnc(C(F)(F)F)n4c2)CCC3)c(F)c1F` on TGF-β?
(A) > 1000 nM

(Q) What reported IC50 corresponds to `Cc1ccccc1-c1nc2n(c1-c1ccc3ncccc3c1)CCC2` on TGF-β?
(A) > 1000 nM

(Q) What reported IC50 corresponds to `Cc1cc(-c2nc3n(c2-c2ccc4cn[nH]c4c2)CCC3)ccc1F` on TGF-β?
(A) 100 to 1000 nM

(Q) What reported IC50 corresponds to `Fc1ccc(-c2nc3occn3c2-c2ccc3ncsc3c2)c(F)c1F` on TGF-β?
(A) 100 to 1000 nM

(Q) What reported IC50 corresponds to `Fc1cc(Cl)c(-c2nc3n(c2-c2ccc4ncsc4c2)CCC3)cc1F` on TGF-β?
(A) 100 to 1000 nM

(Q) What reported IC50 corresponds to `Cc1cc(F)ccc1-c1nc2n(c1-c1ccc3ncccc3c1)CCC2` on TGF-β?
(A) > 1000 nM

(Q) What reported IC50 corresponds to `Cc1c(F)ccc(-c2nc3n(c2-c2ccc4nccn4c2)CCC3)c1C` on TGF-β?
(A) > 1000 nM

(Q) What reported IC50 corresponds to `c1ccc(-c2nc3n(c2-c2ccc4nccn4c2)CCC3)nc1` on TGF-β?
(A) < 50 nM

(Q) What reported IC50 corresponds to `Cc1ccc(-c2nc3n(c2-c2ccc4ncsc4c2)CCC3)c(F)c1F` on TGF-β?
(A) > 1000 nM

(Q) What reported IC50 corresponds to `Fc1cc(F)c(-c2nc3occn3c2-c2ccc3[nH]ncc3c2)cc1F` on TGF-β?
(A) 50 to 100 nM

(Q) What reported IC50 corresponds to `Fc1cc(-c2nc3n(c2-c2ccc4nccn4c2)CCC3)cc(F)c1F` on TGF-β?
(A) > 1000 nM

(Q) What reported IC50 corresponds to `Fc1ccc(-c2nc3n(c2-c2ccc4ncnn4c2)CCC3)c(F)c1F` on TGF-β?
(A) > 1000 nM
